Target: CD3 (antigen of the binding affinity table of Example 1) (UniProt P07766)
Experiment: kinetic fit with two-state parameters; method not given
QUANTITY_KIND: koff (s⁻¹)
Write the answer as a number in s⁻¹, unit excluded.

Complete the entry with koff for H2L5 (antibody, V domains shown) VH: QVQLQQSGAEVAKPGASVKVSCKASGYTFTRYTMHWVRQAPGQGLEWMGYINPSRGYTNYNQKFKDRATLTRDKSISTAYMELSRLRSDDTAVYYCARYYDDHYSLDYWGQGTTLTVSS VL: DIQMTQSPSSLSASVGDRVTITCSASSSVSYMNWYQQKPGKAPKRWIYDTSKLASGVPSRFSGSGSGTDFTLTISSLQPEDFATYYCQQWSSNPFTFGSGTKLEINR
0.0567

Complete the entry with koff for H3L5 (antibody, V domains shown) VH: QVQLVQSGAEVKKPGASVKMSCKASGYTFTRYTMHWVRQAPGQGLEWIGYINPSRGYTNYNQKFKDRATMTTDKSISTAYMELSRLRSDDTAVYYCARYYDDHYSLDYWGQGTTLTVSS VL: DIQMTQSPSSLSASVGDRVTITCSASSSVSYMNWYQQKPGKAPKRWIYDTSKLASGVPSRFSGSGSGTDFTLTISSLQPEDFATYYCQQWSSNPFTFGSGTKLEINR
0.0647

Complete the entry with koff for H3L4 (antibody, V domains shown) VH: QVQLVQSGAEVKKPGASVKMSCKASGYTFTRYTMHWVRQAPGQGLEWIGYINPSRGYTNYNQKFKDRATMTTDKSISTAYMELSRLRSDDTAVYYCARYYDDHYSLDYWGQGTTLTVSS VL: DIQLTQSPSSLSASVGDRVTITCSASSSVSYMNWYQQKPGKAPKLLIYDTSKLASGVPSRFSGSGSGTDFTLTISSMQPEDFATYYCQQWSSNPFTFGSGTKLEINR
0.119
